# study_target: FGF14:Nav1.6 C-tail complex (Homo sapiens, UniProt Q92915+Q9UQD0)
# Construct: polymerase chain reaction (PCR) amplification of the FGF14 open reading frame (nt 1–855); C-terminal fragment of Nav1.6 (amino acids 1763–1976) fused with CD4ΔC-tail (amino acids 1–395); expressed in transfected cells
# Sequence (Q92915 1-252 isoform Q92915-2): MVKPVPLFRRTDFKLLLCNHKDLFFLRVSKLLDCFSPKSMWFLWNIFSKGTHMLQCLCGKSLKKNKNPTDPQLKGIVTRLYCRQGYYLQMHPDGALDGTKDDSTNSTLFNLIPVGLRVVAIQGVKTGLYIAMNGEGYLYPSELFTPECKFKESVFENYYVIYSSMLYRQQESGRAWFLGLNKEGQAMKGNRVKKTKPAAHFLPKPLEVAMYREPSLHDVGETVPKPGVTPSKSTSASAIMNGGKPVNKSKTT
# Sequence (Q9UQD0 1763-1976 limits assumed): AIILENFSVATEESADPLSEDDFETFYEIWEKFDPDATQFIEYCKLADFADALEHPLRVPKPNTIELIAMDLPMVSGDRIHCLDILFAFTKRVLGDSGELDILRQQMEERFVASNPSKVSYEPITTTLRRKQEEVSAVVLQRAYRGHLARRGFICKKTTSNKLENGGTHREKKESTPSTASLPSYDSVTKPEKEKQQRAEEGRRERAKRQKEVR
# method_description: Split-luciferase complementation assay (LCA) in Clone V double stable HEK293 cells
# Type: cell-based
# applied_conditions: CC_NCI screening; LCA luminescence, biological replicate Set 2; normalized to on-plate 0.3% DMSO controls (n=16 per plate)
measurement_label: Split Luciferase Assay %Lum Set 2 (%)
Number in %, nothing else.

Challenge: Entry under review: `Cn1cnc2c(F)c(Nc3ccc(Br)cc3Cl)c(C(=O)NOCCO)cc21` . Reported Split Luciferase Assay %Lum Set 2?
Response given: 90.51

Challenge: Entry under review: `CC(=O)Nc1cccc(-n2c(=O)n(C3CC3)c(=O)c3c(Nc4ccc(I)cc4F)n(C)c(=O)c(C)c32)c1` . Reported Split Luciferase Assay %Lum Set 2?
Response given: 79.06

Challenge: Entry under review: `CN(C)S(=O)(=O)c1ccc2c(c1)/C(=C/c1cc3c([nH]1)CCCC3)C(=O)N2` . Reported Split Luciferase Assay %Lum Set 2?
Response given: 106.11

Challenge: Entry under review: `C[C@]1(c2nc3c(C(N)=O)cccc3[nH]2)CCCN1` . Reported Split Luciferase Assay %Lum Set 2?
Response given: 93.63

Challenge: Entry under review: `NC(=O)c1ccc(I)c([N+](=O)[O-])c1` . Reported Split Luciferase Assay %Lum Set 2?
Response given: 112.35

---

# System: Clone V cells
# applied_conditions: human, 16 h, 30 µM
measurement_label: Toxicity Assay % Fluor (%)
Number in %, nothing else.

Challenge: Entry under review: `O=C(NOC[C@H](O)CO)c1ccc(F)c(F)c1Nc1ccc(I)cc1F` . Reported Toxicity Assay % Fluor?
Response given: 83.92

Challenge: Entry under review: `CC(C)(C#N)c1cc(Cn2cncn2)cc(C(C)(C)C#N)c1` . Reported Toxicity Assay % Fluor?
Response given: 95.38

Challenge: Entry under review: `COc1nc(N)nc2c1ncn2[C@@H]1O[C@H](CO)[C@@H](O)[C@@H]1O` . Reported Toxicity Assay % Fluor?
Response given: 90.75

Challenge: Entry under review: `CO[C@H]1C[C@@H]2CC[C@@H](C)[C@@](O)(O2)C(=O)C(=O)N2CCCC[C@H]2C(=O)O[C@H]([C@H](C)C[C@@H]2CC[C@@H](OC(=O)C(C)(CO)CO)[C@H](OC)C2)CC(=O)[C@H](C)/C=C(\C)[C@@H](O)[C@@H](OC)C(=O)[C@H](C)C[C@H](C)/C=C/C=C/C=C/1C` . Reported Toxicity Assay % Fluor?
Response given: 87.05

Challenge: Entry under review: Nc1nc(F)nc2c1ncn2[C@@H]1O[C@H](COP(=O)(O)O)[C@@H](O)[C@@H]1O [Fludarabine phosphate] . Reported Toxicity Assay % Fluor?
Response given: 95.37

Challenge: Entry under review: `Cc1cn(-c2cc(NC(=O)c3ccc(C)c(Nc4nccc(-c5cccnc5)n4)c3)cc(C(F)(F)F)c2)cn1` . Reported Toxicity Assay % Fluor?
Response given: 85.20

Challenge: Entry under review: CS(=O)(=O)c1ccc(C(=O)Nc2ccc(Cl)c(-c3ccccn3)c2)c(Cl)c1 [Vismodegib, reference compound] . Reported Toxicity Assay % Fluor?
Response given: 93.24

Challenge: Entry under review: COc1cc2ncn(-c3cc(OCc4ccccc4C(F)(F)F)c(C(N)=O)s3)c2cc1OC [GW 843682X] . Reported Toxicity Assay % Fluor?
Response given: 106.44

Challenge: Entry under review: `CC(C)C[C@H](NC(=O)[C@H](Cc1ccccc1)NC(=O)c1cnccn1)B(O)O` . Reported Toxicity Assay % Fluor?
Response given: 89.20

Challenge: Entry under review: `NCCCNCCSP(=O)(O)O` . Reported Toxicity Assay % Fluor?
Response given: 93.47

Challenge: Entry under review: `Cc1cc2c(F)c(Oc3ncnn4cc(OC[C@@H](C)O)c(C)c34)ccc2[nH]1` . Reported Toxicity Assay % Fluor?
Response given: 92.51

Challenge: Entry under review: `CN(NC(=O)CC(=O)NN(C)C(=S)c1ccccc1)C(=S)c1ccccc1` . Reported Toxicity Assay % Fluor?
Response given: 74.49

Challenge: Entry under review: `NC(=O)c1ccc(I)c([N+](=O)[O-])c1` . Reported Toxicity Assay % Fluor?
Response given: 93.94

Challenge: Entry under review: `FC(F)c1nc2ccccc2n1-c1nc(N2CCOCC2)nc(N2CCOCC2)n1` . Reported Toxicity Assay % Fluor?
Response given: 95.63

Challenge: Entry under review: `O=C1c2c(O)ccc(O)c2C(=O)c2c(NCCNCCO)ccc(NCCNCCO)c21` . Reported Toxicity Assay % Fluor?
Response given: 90.67

Challenge: Entry under review: `Cn1c(=O)n(-c2ccc(C(C)(C)C#N)cc2)c2c3cc(-c4cnc5ccccc5c4)ccc3ncc21` . Reported Toxicity Assay % Fluor?
Response given: 90.66
